Test: Study 2 Part A: multiple-dose (14 days) pharmacokinetics
Assay type: in vivo, human
Conditions: human, plasma, oral, 200 mg, 200 mg daily, Day 14; geometric mean; read-out: Vz/F
Protocol: The 2-part multiple-dose study, Study 2, determined the safety and tolerability of repeated daily doses of Compound 1 and investigated the effects on biomarkers of relevance for the treatment of alcohol dependence. PK were also evaluated in the multiple-dose, dose-escalation study, Study 2. […]
endpoint-name: Vd/F at 14 days (L)
One number for each entry, in L.

Input: Tell me the measured Vd/F at 14 days of CCC(CC)c1cc(C)nc2c(-c3sc(N4CCOCC4)nc3Cl)c(C)nn12 , please.
Output: 16300

====

Experiment: Study 1: single escalating oral dose pharmacokinetics, fed and fasted
Assay type: in vivo, human
Settings: human, plasma, po, 150 mg, 150 mg single oral dose, fed; geometric mean
endpoint-name: Cmax (ng/mL)
Numbers only, in ng/mL.

Input: Bench note: what Cmax did CCC(CC)c1cc(C)nc2c(-c3sc(N4CCOCC4)nc3Cl)c(C)nn12 [Compound 1] show?
Output: 93.4

====

Experiment: Study 1: single escalating oral dose pharmacokinetics, fed and fasted
Type: in vivo, human
Details: human, plasma, po, after a single PO dose (fed and fasted state), across dose levels; read-out: Mean half-life (t1/2)
Protocol: Study 1 was the first-in-human study that investigated the safety, tolerability, and PK of single-escalating doses of Compound 1, given orally, to healthy adult subjects. […] The data from this study were used for the selection of doses for Study 2. […] PK parameters AUC0-∞ and Cmax were analyzed separately for dose proportionality for Compound 1 from 50 to 800 mg when administered in the fed state. […]
endpoint-name: half-life

Input: Request the reported half-life associated with CCC(CC)c1cc(C)nc2c(-c3sc(N4CCOCC4)nc3Cl)c(C)nn12
Output: 31 to 44 h

====

Experiment: Study 1: single escalating oral dose pharmacokinetics, fed and fasted
Type: in vivo, human
Details: human, plasma, po, 150 mg, 150 mg single oral dose, fasted; geometric mean; read-out: t1/2 (converted)
endpoint-name: half-life
Hey, just the number and the unit after it is fine.

Input: For the molecule shown here, CCC(CC)c1cc(C)nc2c(-c3sc(N4CCOCC4)nc3Cl)c(C)nn12 , give the reported half-life.
Output: 38.4 h

====

Assay: Study 2 Part A: multiple-dose (14 days) pharmacokinetics
Format: in vivo, human
Conditions: human, plasma, oral, 150 mg, 150 mg daily, Day 14; geometric mean; read-out: AUC0-24h
endpoint-name: AUC(0-t) (ng·h/mL)
One number for each entry, in ng·h/mL.

Input: Name the reported AUC(0-t) value associated with the compound CCC(CC)c1cc(C)nc2c(-c3sc(N4CCOCC4)nc3Cl)c(C)nn12
Output: 1480

====

Test: Study 2 Part A: multiple-dose (14 days) pharmacokinetics
Assay type: in vivo, human
Conditions: human, plasma, oral, 200 mg, 200 mg daily, Day 14; geometric mean
endpoint-name: Cmax (ng/mL)
Answers are plain numbers, in ng/mL.

Input: Any idea what Cmax was measured for CCC(CC)c1cc(C)nc2c(-c3sc(N4CCOCC4)nc3Cl)c(C)nn12 [Compound 1] ?
Output: 314

====

Assay: Study 1: single escalating oral dose pharmacokinetics, fed and fasted
Format: in vivo, human
Conditions: human, plasma, po, 50 mg, 50 mg single oral dose, fed; geometric mean
endpoint-name: AUC(0-inf) (ng·h/mL)
Numbers only, in ng·h/mL.

Input: Please give the measured AUC(0-inf) for this compound: CCC(CC)c1cc(C)nc2c(-c3sc(N4CCOCC4)nc3Cl)c(C)nn12
Output: 165
